These data points were gathered from ChEMBL document CHEMBL1129462.

Experiment: Bioavailability
Format: ADME, organism-based
Details: eutheria, in vivo; read-out: BA
recorded_metric: bioavailability (%)

1 = CCOc1nc2cccc(C(=O)O)c2n1Cc1ccc(-c2ccccc2-c2noc(=O)[nH]2)cc1 [AZILSARTAN]
2 = CCOc1nc2cccc(C(=O)O)c2n1Cc1ccc(-c2ccccc2-c2nnn[nH]2)cc1
3 = CCOc1nc2cccc(C(=O)O)c2n1Cc1ccc(-c2ccccc2-c2nsc(O)n2)cc1
Request: Falling order of bioavailability, please. Order the labels as requested and give them as your answer.
Result: 3, 1, 2
(3: 51%, 1: 20%, 2: 5%)

###

Target: Angiotensin II receptor (Rattus norvegicus) (UniProt P29089+P25095+P35351)
Assay: Percent inhibition of angiotensin II (0.1 ug/kg iv) -induced pressor response 3h after administration of test compounds (1 mg/kg po) in conscious male Sprague-Dawley rats
Assay type: functional, organism-based
recorded_metric: inhibition (%)

// worked examples, inhibition included
1. CCOc1nc2cccc(C(=O)O)c2n1Cc1ccc(-c2ccccc2-c2noc(=O)[nH]2)cc1
100
2. CCOc1nc2cccc(C(=O)O)c2n1Cc1ccc(-c2ccccc2-c2nsc(O)n2)cc1
100
3. CCCSc1nc2cccc(C(=O)O)c2n1Cc1ccc(-c2ccccc2-c2noc(S)n2)cc1
100
4. CCc1nc2cccc(C(=O)O)c2n1Cc1ccc(-c2ccccc2-c2nsc(O)n2)cc1
100
5. CCCCc1nc2cccc(C(=O)O)c2n1Cc1ccc(-c2ccccc2-c2noc(S)n2)cc1
82

a = CCCCc1nc2cccc(C(=O)OC)c2n1Cc1ccc(-c2ccccc2-c2noc(S)n2)cc1
b = CCOc1nc2cccc(C(=O)OC)c2n1Cc1ccc(-c2ccccc2C2=NOS(=O)N2)cc1 (centres undefined)
Request: Identify the entry with the larger inhibition. Options: a and b Label of pick, please.
Result: a
(a: 84%, b: 35%)

A = CCSc1nc2cccc(C(=O)O)c2n1Cc1ccc(-c2ccccc2-c2noc(S)n2)cc1
B = CCNc1nc2cccc(C(=O)O)c2n1Cc1ccc(-c2ccccc2-c2nsc(O)n2)cc1
Request: Identify the entry with the larger inhibition. Options: A and B Label of pick, please.
Result: A
(A: 100%, B: 70%)

###

Test: Inhibition of specific binding of [125I]angiotensin II (0.2 nM) to angiotensin II receptor in bovine adrenal cortex
Format: tissue-based, Bos taurus
recorded_metric: IC50 (nM)

a = CCOc1nc2cccc(C(=O)OC)c2n1Cc1ccc(-c2ccccc2C2=NOS(=O)N2)cc1 (stereo not drawn)
b = CCOc1nc2cccc(C(=O)O)c2n1Cc1ccc(-c2ccccc2-c2nnn[nH]2)cc1
Request: Returns the identifier with the smallest measured IC50 among a and b . Label of pick, please.
Result: b

1 = CCNc1nc2cccc(C(=O)O)c2n1Cc1ccc(-c2ccccc2-c2nsc(O)n2)cc1
2 = CCCOc1nc2cccc(C(=O)O)c2n1Cc1ccc(-c2ccccc2-c2nsc(O)n2)cc1
3 = CCCc1nc2cccc(C(=O)O)c2n1Cc1ccc(-c2ccccc2-c2noc(S)n2)cc1
4 = CCOc1nc2cccc(C(=O)O)c2n1Cc1ccc(-c2ccccc2-c2nsc(O)n2)cc1
Request: Rank entries according to their IC50, from the largest number down. Order the labels as requested and give them as your answer.
Result: 2, 3, 4, 1
(2: 920 nM, 3: 390 nM, 4: 250 nM, 1: 130 nM)

1 = CCCCc1nc2cccc(C(=O)O)c2n1Cc1ccc(-c2ccccc2-c2noc(S)n2)cc1
2 = CCCc1nc2cccc(C(=O)O)c2n1Cc1ccc(-c2ccccc2-c2nsc(O)n2)cc1
3 = CCOc1nc2cccc(C(=O)OC)c2n1Cc1ccc(-c2ccccc2-c2nn[nH]n2)cc1
Request: Which order do these items take when sorted by rising IC50? List them. Order the labels as requested and give them as your answer.
Result: 3, 2, 1

A = CNc1nc2cccc(C(=O)O)c2n1Cc1ccc(-c2ccccc2-c2nsc(O)n2)cc1
B = CCCCc1nc(Cl)c(CO)n1Cc1ccc(-c2ccccc2-c2nnn[nH]2)cc1
Request: Identify the entry with the larger IC50. Options: A and B Label of pick, please.
Result: A
